Numbers sourced from PubChem BioAssay (NCI).

# System: HS 578T breast
# assay-name: NCI-60 one-dose screen, 48 h (100 = growth as untreated, 0 = no growth, -100 = all killed)
# particulars: 10 µM
This is part of a sample that, as a whole, favours compounds with a hit. Of some 83,000 tested, about 20% had one in any assay.
For each entry below, report its growth value.
Kindly answer with a numeric value in %, unit omitted.

// sample C/C=C(\C)C(C(=O)NC1CCCCC1)N(C(=O)C1CCc2cc(F)ccc2O1)c1ccc([N+](=O)[O-])cc1 (centres undefined) , its growth was 80.2

For this compound ( "C=CCN(CCOC(=O)c1ccc([N+](=O)[O-])cc1)CCOC(=O)c1ccc([N+](=O)[O-])cc1" ), measured growth is 101

Reported growth of "O=C(CN1CCN(c2ccccc2)CC1)N1CCN(c2nnc(-c3ccc(Cl)cc3)c(-c3ccc(Cl)cc3)n2)CC1" : 77.5

// growth lookup, compound = "COc1cc2nccc(Oc3ccc(NC(=O)C4(C(=O)Nc5ccc(F)cc5)CC4)cc3)c2cc1Oc1ccc(N)cn1" , result: 7.33
